B1: LINE1-full (parent)
chain: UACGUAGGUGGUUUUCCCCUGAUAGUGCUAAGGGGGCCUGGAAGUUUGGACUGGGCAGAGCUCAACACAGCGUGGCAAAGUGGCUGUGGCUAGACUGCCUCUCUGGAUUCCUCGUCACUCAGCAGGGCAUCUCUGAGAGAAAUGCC

Variants of: B1
measurement notes: self-cleavage, relative activity (ratio to wild type); higher = more cleavage; in vitro, sequencing; the parent is a self-cleaving ribozyme
Classes are defined on self-cleavage with ranges lower segment = under 0.4, middle segment = from 0.4 up to 1, upper segment = 1 and over

- sequence variant: "A121G A124U"
  group label: "upper segment"
- sequence variant: "A136G A142C"
  group label: "upper segment"
- sequence variant: "C38U U115A"
  group label: "upper segment"
- sequence variant: "U9C G122C"
  group label: "lower segment"
- sequence variant: "U132C A142G"
  group label: "upper segment"
- sequence variant: "A2U A64G"
  group label: "lower segment"
- sequence variant: "U13C G127U"
  group label: "upper segment"
- sequence variant: "A79G U96C"
  group label: "lower segment"
- sequence variant: "A22U U102A"
  group label: "upper segment"
- sequence variant: "A57G G126U"
  group label: "middle segment"
- sequence variant: "U12C U85A"
  group label: "lower segment"
- sequence variant: "U104A U119G"
  group label: "middle segment"
